B1: glmS ribozyme (parent)
chain: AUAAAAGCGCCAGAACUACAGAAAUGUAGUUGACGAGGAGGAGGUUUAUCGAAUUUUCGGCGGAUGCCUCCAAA

Variants of: B1
procedure_summary: self-cleavage kobs at 2500 uM GlcN6P; higher = faster cleavage; RNA array
condition_parameters: with glucosamine-6-phosphate
Fewer inactive variants are shown than the library holds.
Recorded self-cleavage kobs at 2500 uM GlcN6P, one value per entry.
The figure you give is taken to be in s⁻¹; do not add the unit.

>>> numeric_value("A53G A64U")
"5.65e-05"

Return reported self-cleavage kobs at 2500 uM GlcN6P; argument: A12U G44U
0.000645

Return reported self-cleavage kobs at 2500 uM GlcN6P; argument: A39U A42U
0.00602

Taken from the supplement of paper PMC7125110.
